Reported Activity values for a set of compounds
Tested on: RAW264.7
assay comment: Antiinflammatory activity against LPS induced mouse RAW264.7 cells assessed as decrease in cell viability at 10 to 20 uM relative to control
Format: functional
condition notes: dose 10-20 µM

OCCc1ccc(N=C=S)cc1
<80%
N#Cc1cc(CCO)ccc1N=C=S
<80%
O=C(OCCc1ccc(N=C=S)cc1)c1ccccc1
<80%
O=C(OCCc1ccc(N=C=S)cc1)c1ccc([N+](=O)[O-])cc1
<80%

Recorded Activity of "OCCc1ccc(N=C=S)c(Br)c1" , please.
<80%

###

test system: Prostaglandin G/H synthase 2 (Homo sapiens)
Sequence (P35354 whole entry): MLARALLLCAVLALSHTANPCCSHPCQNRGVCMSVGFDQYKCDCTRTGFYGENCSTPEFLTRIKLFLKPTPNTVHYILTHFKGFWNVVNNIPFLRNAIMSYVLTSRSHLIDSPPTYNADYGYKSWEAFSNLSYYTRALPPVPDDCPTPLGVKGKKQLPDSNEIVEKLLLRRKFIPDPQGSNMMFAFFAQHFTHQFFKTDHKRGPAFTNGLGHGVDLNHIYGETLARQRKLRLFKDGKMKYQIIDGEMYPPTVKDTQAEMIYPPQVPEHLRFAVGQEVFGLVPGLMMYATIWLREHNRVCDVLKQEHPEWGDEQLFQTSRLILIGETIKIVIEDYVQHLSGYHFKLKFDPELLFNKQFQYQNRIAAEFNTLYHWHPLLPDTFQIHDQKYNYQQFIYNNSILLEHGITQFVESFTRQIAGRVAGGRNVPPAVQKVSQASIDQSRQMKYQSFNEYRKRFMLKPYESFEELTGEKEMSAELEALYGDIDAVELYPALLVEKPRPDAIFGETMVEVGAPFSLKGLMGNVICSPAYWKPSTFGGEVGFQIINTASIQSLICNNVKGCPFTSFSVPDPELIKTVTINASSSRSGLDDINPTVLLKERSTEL
assay comment: Inhibition of human recombinant COX-2 using arachidonic acid as substrate at 10 uM preincubated for 10 mins followed by substrate addition and measured after 30 secs
measurement label: pIC50
# pIC50 is unitless: minus log10 of the molar concentration; print number only

# pIC50 lookup, item C[S+]([O-])CCCCN=C=S (stereo unspecified) [SULFORAPHANE]
5.20
